Reference source for all entries: ChEMBL document CHEMBL1154105

Protein target, amino acids: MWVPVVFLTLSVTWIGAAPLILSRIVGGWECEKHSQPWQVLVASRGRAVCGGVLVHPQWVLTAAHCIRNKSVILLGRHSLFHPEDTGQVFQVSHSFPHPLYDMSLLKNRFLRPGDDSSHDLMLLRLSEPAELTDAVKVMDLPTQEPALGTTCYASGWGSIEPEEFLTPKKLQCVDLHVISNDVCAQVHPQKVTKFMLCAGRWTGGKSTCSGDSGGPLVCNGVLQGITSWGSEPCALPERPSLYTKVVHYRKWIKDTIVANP
Starred links: 1 amine or outer side, 2 acyl side, 3 side chain; linkers in the order of their positions; H or OH if unused. Non-standard residues stand in square brackets, D forms with d. Residues, ends and D or L forms follow the SMILES beside them. *: point of attachment. X2 = C[C@@H](C(=O)[*:2])N(c1ccc2ccccc2c1)[*:1]; Phe(4-Br) = N[C@@H](Cc1ccc(Br)cc1)C(=O)O; N(cHex)Ala = C[C@H](NC1CCCCC1)C(=O)O; Cbz = O=C(OCc1ccccc1)*; tBu = CC(C)(C)*
Endpoint: Ki

CC(C)C[C@@H](C=O)NC(=O)[C@H](Cc1ccc(Br)cc1)NC(=O)[C@H](CCCCN)NC(=O)[C@H](CO)NC(=O)[C@H](CO)NC(=O)OCc1ccccc1 (Cbz-SSK[Phe(4-Br)]L-aldehyde) :: > 500 µM
CC(C)C[C@@H](C=O)NC(=O)[C@H](CCCCN)NC(=O)[C@H](CCCCN)NC(=O)[C@H](CO)NC(=O)[C@H](CO)NC(=O)OCc1ccccc1 (Cbz-SSKKL-aldehyde) :: > 50 µM
CC(C)C[C@@H](C=O)NC(=O)[C@H](CC(=O)O)NC(=O)[C@H](CCCCN)NC(=O)[C@H](CO)NC(=O)[C@H](CO)NC(=O)OCc1ccccc1 (Cbz-SSKDL-aldehyde) :: > 1000 µM
CC(C)C[C@@H](C=O)NC(=O)[C@H](C)N(C(=O)[C@H](CCCCN)NC(=O)[C@H](CO)NC(=O)[C@H](CO)NC(=O)OCc1ccccc1)c1ccc2ccccc2c1 (Cbz-SSK[X2]L-aldehyde) :: > 100 µM
CC(C)C[C@@H](C=O)NC(=O)[C@H](CC(C)C)NC(=O)[C@H](C)N(C(=O)[C@H](CO)NC(=O)[C@H](CO)NC(=O)OCc1ccccc1)C1CCCCC1 (Cbz-SS[N(cHex)Ala]LL-aldehyde) :: 13.1 µM
CC(C)C[C@@H](C=O)NC(=O)[C@H](CC(C)C)NC(=O)[C@@H]1CCCN1C(=O)[C@H](CO)NC(=O)[C@H](CO)NC(=O)OCc1ccccc1 (Cbz-SSPLL-aldehyde) :: > 1000 µM
CSCC[C@H](NC(=O)[C@H](CO)NC(=O)[C@H](CO)NC(=O)OCc1ccccc1)C(=O)N[C@@H](CC(C)C)C(=O)N[C@H](C=O)CC(C)C (Cbz-SSMLL-aldehyde) :: 7.5 µM
CC(C)C[C@@H](C=O)NC(=O)[C@H](CCC(N)=O)NC(=O)[C@H](CCCCN)NC(=O)[C@H](CO)NC(=O)[C@H](CO)NC(=O)OCc1ccccc1 (Cbz-SSKQL-aldehyde) :: 21.8 µM
CC(C)C[C@@H](C=O)NC(=O)[C@H](CC(C)C)NC(=O)CNC(=O)[C@H](CO)NC(=O)[C@H](CO)NC(=O)OCc1ccccc1 (Cbz-SSGLL-aldehyde) :: > 1000 µM
CC(C)C[C@@H](C=O)NC(=O)[C@@H](NC(=O)[C@H](CCCCN)NC(=O)[C@H](CO)NC(=O)[C@H](CO)NC(=O)OCc1ccccc1)C(C)C (Cbz-SSKVL-aldehyde) :: > 50 µM
CC(C)C[C@@H](C=O)NC(=O)[C@H](CSC(C)(C)C)NC(=O)[C@H](CCCCN)NC(=O)[C@H](CO)NC(=O)[C@H](CO)NC(=O)OCc1ccccc1 (Cbz-SSKC(tBu)L-aldehyde) :: > 50 µM

----------
Non-standard residues stand in square brackets, D forms with d. Residues, ends and D or L forms follow the SMILES beside them. *: point of attachment. Ala(imidazol-2-yl) = N[C@@H](Cc1ncc[nH]1)C(=O)O; N(cHex)Ala = C[C@H](NC1CCCCC1)C(=O)O; Pro(3R-OH) = O=C(O)[C@H]1NCC[C@H]1O; hIle = CC[C@H](C)C[C@H](N)C(=O)O; NPhGly = O=C(O)CNc1ccccc1; Cbz = O=C(OCc1ccccc1)*
Measured Ki on Prostate-specific antigen (Homo sapiens, UniProt P07288) follows.
Endpoint: Ki

CC(C)C[C@@H](C=O)NC(=O)[C@@H]1[C@H](O)CCN1C(=O)[C@H](CCCCN)NC(=O)[C@H](CO)NC(=O)[C@H](CO)NC(=O)OCc1ccccc1 (Cbz-SSK[Pro(3R-OH)]L-aldehyde) :: > 500 µM
CC(C)C[C@@H](C=O)NC(=O)[C@H](C)N(C(=O)[C@H](CCCCN)NC(=O)[C@H](CO)NC(=O)[C@H](CO)NC(=O)OCc1ccccc1)C1CCCCC1 (Cbz-SSK[N(cHex)Ala]L-aldehyde) :: > 50 µM
CC(C)C[C@@H](C=O)NC(=O)[C@H](Cc1ncc[nH]1)NC(=O)[C@H](CCCCN)NC(=O)[C@H](CO)NC(=O)[C@H](CO)NC(=O)OCc1ccccc1 (Cbz-SSK[Ala(imidazol-2-yl)]L-aldehyde) :: 18.6 µM
CC(C)C[C@@H](C=O)NC(=O)[C@@H]1CCCN1C(=O)[C@H](CCCCN)NC(=O)[C@H](CO)NC(=O)[C@H](CO)NC(=O)OCc1ccccc1 (Cbz-SSKPL-aldehyde) :: > 500 µM
CC(C)C[C@@H](C=O)NC(=O)[C@H](CC(C)C)NC(=O)[C@H](CCC(=O)O)NC(=O)[C@H](CO)NC(=O)[C@H](CO)NC(=O)OCc1ccccc1 (Cbz-SSELL-aldehyde) :: > 1000 µM
CC[C@H](C)C[C@H](NC(=O)[C@H](CCCCN)NC(=O)[C@H](CO)NC(=O)[C@H](CO)NC(=O)OCc1ccccc1)C(=O)N[C@H](C=O)CC(C)C (Cbz-SSK[hIle]L-aldehyde) :: 37.4 µM
CC(C)C[C@@H](C=O)NC(=O)[C@H](CC(C)C)NC(=O)[C@@H](NC(=O)[C@H](CO)NC(=O)[C@H](CO)NC(=O)OCc1ccccc1)[C@@H](C)O (Cbz-SSTLL-aldehyde) :: 43.8 µM
CC(C)C[C@@H](C=O)NC(=O)CN(C(=O)[C@H](CCCCN)NC(=O)[C@H](CO)NC(=O)[C@H](CO)NC(=O)OCc1ccccc1)c1ccccc1 (Cbz-SSK[NPhGly]L-aldehyde) :: > 50 µM
CC(C)C[C@@H](C=O)NC(=O)[C@H](CO)NC(=O)[C@H](CCCCN)NC(=O)[C@H](CO)NC(=O)[C@H](CO)NC(=O)OCc1ccccc1 (Cbz-SSKSL-aldehyde) :: > 50 µM
CC(C)C[C@@H](C=O)NC(=O)[C@H](C)NC(=O)[C@H](CCCCN)NC(=O)[C@H](CO)NC(=O)[C@H](CO)NC(=O)OCc1ccccc1 (Cbz-SSKAL-aldehyde) :: > 100 µM
CC(C)C[C@@H](C=O)NC(=O)[C@H](CC(C)C)NC(=O)[C@H](CC(N)=O)NC(=O)[C@H](CO)NC(=O)[C@H](CO)NC(=O)OCc1ccccc1 (Cbz-SSNLL-aldehyde) :: 18.2 µM

----------
# maps each entry to its Ki
Assay target: Prostate-specific antigen (Homo sapiens);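 note: Fluorescence-based readout of substrate cleavage by prostate-specific antigen, used to gauge enzyme inhibition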
Non-standard residues stand in square brackets, D forms with d. Residues, ends and D or L forms follow the SMILES beside them. *: point of attachment. Met(O) = CS(=O)CC[C@H](N)C(=O)O; Cbz = O=C(OCc1ccccc1)*
Endpoint: Ki (µM)

CC(C)C[C@@H](C=O)NC(=O)[C@H](CC(C)C)NC(=O)[C@H](CCC(N)=O)NC(=O)[C@H](CO)NC(=O)[C@H](CO)NC(=O)OCc1ccccc1 (Cbz-SSQLL-aldehyde) :: 3.9
CC(C)C[C@@H](C=O)NC(=O)[C@H](CC(C)C)NC(=O)[C@H](CC[S+](C)[O-])NC(=O)[C@H](CO)NC(=O)[C@H](CO)NC(=O)OCc1ccccc1 (stereo partly drawn) (Cbz-SS[Met(O)]LL-aldehyde) :: 25.9
